Experiment: Drug cytotoxicity in CPE assay (monolayer death in absence of virus)
Settings: monkey, vero cells
PROPERTY NAME: cytotoxicity at 23000 µM (%)
Numbers only; they are read as %.

Find the recorded cytotoxicity at 23000 µM belonging to C=CCN=C1NCCN1CC(=O)O [Compound 10b] and report it.
7

* * *

Assay: Cytotoxicity in plaque reduction assay, MRC-5 cells
Assay type: cell-based, human
Conditions: human, mrc-5 cells, Table 9A; read-out: CD50 (the source's name)
PROPERTY NAME: CC50

Find the recorded CC50 belonging to NC1=NCCN1CC(=O)O and report it.
> 4000 µg/mL

* * *

Assay: Phosphorylation of cyclocreatine in cultured cells
Settings: me180 cells
PROPERTY NAME: metabolised (%)
Numbers only; they are read as %.

Find the recorded metabolised belonging to NC1=NCCN1CC(=O)O and report it.
85

* * *

Experiment: Phosphorylation of cyclocreatine in cultured cells
Conditions: a2058 cells
PROPERTY NAME: metabolised (%)
Numbers only; they are read as %.

Find the recorded metabolised belonging to NC1=NCCN1CC(=O)O [cyclocreatine, 1-carboxymethyl-2-iminoimidazolidine] and report it.
13

* * *

As shown below, each of these compounds has a reported CC50 value.
Assay: Cytotoxicity in plaque reduction assay, CV-1 cells
Assay type: cell-based, African Green Monkey
Conditions: monkey, Table 9B, read-out: CD50 (the source's name)

{"columns": ["COMPOUND", "CC50"],
 "data": [
  ["NC1=NCCN1CC(=O)O", "5790 µg/mL"]
]}

Moving on to another compound below.
Find the recorded CC50 belonging to Nc1nc(O)c2ncn(COC(CO)CO)c2n1 [DHPG, dihydroxypropoxymethylguanine, reference compound] and report it.
> 10 µg/mL

* * *

Assay: Drug cytotoxicity in CPE assay (monolayer death in absence of virus)
Conditions: monkey, vero cells
PROPERTY NAME: cytotoxicity at 38200 µM (%)
Numbers only; they are read as %.

Find the recorded cytotoxicity at 38200 µM belonging to CN=C1NCCN1CC(=O)O [Compound 10a] and report it.
5

* * *

System: Vero cells
Conditions: monkey
PROPERTY NAME: CC50

I'm curious: which CC50 was measured for NC1=NCCN1CC(=O)O tested on Vero cells?
> 28 mM

* * *

Test: Phosphorylation of cyclocreatine in cultured cells
Conditions: vero cells
PROPERTY NAME: metabolised (%)
Numbers only; they are read as %.

Find the recorded metabolised belonging to NC1=NCCN1CC(=O)O and report it.
68
